Values from ChEMBL document CHEMBL2010780

runDescription: Inhibition of Hepatitis C virus genotype 1b Con1 NS5B Cdelta21 polymerase assessed as incorporation of [33P]-CTP into heteropolymer RNA template after 2 hrs
Design: species or system Hepacivirus hominis
experimentalConditions: Con1, 2 h
pIC50: −log10 of the molar value.
measure: pIC50

> print(dat)
                               samplesmiles  measure  valueobserved
1  Cc1ccnc(N2CCN(c3cc(C(C)C)ccc3NC(=O)c3cccnc3)CC2)n1    pIC50           5.82

1: Cc1ncoc1C(=O)Nc1ccc(C(C)C)cc1N1CCN(c2cnccn2)CC1
2: CC(C)c1ccc(NC(=O)c2ccsc2)c(N2CCN(c3cnccn3)CC2)c1
query: API: POST /compare with 1 and 2 ; response names the item with higher pIC50. Field: selected label. Fill in the label of the entry you choose.
result: 2
(2: 5.15, 1: 4.85)

====

runDescription: Inhibition of Hepatitis C virus genotype 1b Con1 NS5B Cdelta21 polymerase assessed as incorporation of [33P]-CTP into heteropolymer RNA template after 2 hrs
Parameters: species or system Hepacivirus hominis
experimentalConditions: Con1, 2 h
pIC50: −log10 of the molar value.
measure: pIC50

Example entries begin here.
> print(dat)
                               samplesmiles  measure  valueobserved
1  CC(C)c1ccc(NC(=O)c2cccnc2F)c(N2CCN(c3cnccn3)CC2)c1    pIC50           5.66
2  CC(C)c1ccc(NC(=O)c2cccnc2)c(N2CCN(c3ccccn3)CC2)c1    pIC50           5.14
3  Cc1occc1C(=O)Nc1ccc(C(C)C)cc1N1CCN(c2cnccn2)CC1    pIC50           4.82
4  Cc1nc(N(C)C)sc1C(=O)Nc1ccc(C(C)C)cc1N1CCN(c2cnccn2)CC1    pIC50           5.00

P: Cc1cnc(N2CCN(c3cc(C(C)C)ccc3NC(=O)c3cccnc3)CC2)s1
Q: CC(C)c1ccc(NC(=O)c2cccnc2N)c(N2CCN(c3cnccn3)CC2)c1
R: CC(C)c1ccc(NC(=O)c2cccnc2)c(N2CCN(c3ccncn3)CC2)c1
query: Your job: order these 3 records by pIC50, ascending. Order the labels as requested and give them as your answer.
result: P, Q, R
(P: 4.82, Q: 6.00, R: 6.25)

====

runDescription: Inhibition of Hepatitis C virus genotype 1b Con1 NS5B Cdelta21 polymerase assessed as incorporation of [33P]-CTP into heteropolymer RNA template after 2 hrs
Design: species or system Hepacivirus hominis
experimentalConditions: Con1, 2 h
pIC50: −log10 of the molar value.
measure: pIC50

> print(dat)
                                   compound  valueobserved
1  Cc1csc(N2CCN(c3cc(C(C)C)ccc3NC(=O)c3cccnc3)CC2)n1           5.41
2  Cc1ncccc1C(=O)Nc1ccc(C(C)C)cc1N1CCN(c2ccncn2)CC1           7.00
3  CC(C)c1ccc(NC(=O)c2cccnc2C(F)(F)F)c(N2CCN(c3cnccn3)CC2)c1           5.64

P: CC(C)c1ccc(NC(=O)c2cccc(O)n2)c(N2CCN(c3cnccn3)CC2)c1
Q: CC(C)c1ccc(NC(=O)c2cccnc2)c(N2CCN(c3cncc(C4CC4)n3)CC2)c1
query: API: POST /compare with P and Q ; response names the item with higher pIC50. Field: selected label. Fill in the label of the entry you choose.
result: Q

====

runDescription: Inhibition of Hepatitis C virus genotype 1b Con1 NS5B Cdelta21 polymerase assessed as incorporation of [33P]-CTP into heteropolymer RNA template after 2 hrs
Parameters: species or system Hepacivirus hominis
experimentalConditions: Con1, 2 h
measure: IC50

> print(dat)
                               samplesmiles  valueobserved
1  CC(C)c1ccc(NC(=O)c2cccnc2)c(N2CCN(C(=O)OC(C)(C)C)CC2)c1       > 200 µM
2  CC(C)c1ccc(NC(=O)c2cnccc2C(F)(F)F)c(N2CCN(c3cnccn3)CC2)c1        > 20 µM
3  CC(C)c1ccc(NC(=O)c2cccnc2)c(N2CCN(S(C)(=O)=O)CC2)c1       > 200 µM

query: IC50 for CC(C)c1ccc(NC(=O)c2ccnc(NC(=O)C(C)(C)C)c2)c(N2CCN(c3cnccn3)CC2)c1 ?
result: > 20 µM

====

Recorded CC50 at 72 h values for a group of compounds are listed next.
runDescription: Cytotoxicity against human HuH7 cells after 3 days by MTS assay
Format: cell-based, Huh-7

Example entries begin here.
> print(dat)
                               samplesmiles  valueobserved
1  CC(C)c1ccc(NC(=O)c2cccnc2)c(N2CCN(c3nsc(Cl)n3)CC2)c1        > 10 µM
2  Cc1c(F)cc(C(=O)Nc2ccc(C(C)C)cc2N2CCN(c3cnccn3)CC2)cc1F        > 50 µM

// switching to the query compound
query: CC50 at 72 h for Cc1nc(N(C)C)sc1C(=O)Nc1ccc(C(C)C)cc1N1CCN(c2cnccn2)CC1 ?
result: > 10 µM

====

runDescription: Inhibition of Hepatitis C virus genotype 1b Con1 NS5B Cdelta21 polymerase assessed as incorporation of [33P]-CTP into heteropolymer RNA template after 2 hrs
Set-up: species or system Hepacivirus hominis
experimentalConditions: Con1, 2 h
pIC50: −log10 of the molar value.
measure: pIC50

> print(dat)
                               samplesmiles  measure  valueobserved
1  Cc1ncccc1C(=O)Nc1ccc(C(C)C)cc1N1CCN(c2ncnc3ccsc23)CC1    pIC50           7.85

P: O=C(Nc1ccc(C2CC2)cc1N1CCN(c2cnccn2)CC1)c1cccnc1
Q: Cc1cncc(N2CCN(c3cc(C(C)C)ccc3NC(=O)c3cccnc3)CC2)n1
query: Quick one: lower pIC50, P or Q ? Field: selected label. Fill in the label of the entry you choose.
result: P
(P: 4.92, Q: 6.30)

====

Recorded IC50 values for a group of compounds are listed next.
runDescription: Inhibition of Hepatitis C virus genotype 1b Con1 NS5B Cdelta21 polymerase assessed as incorporation of [33P]-CTP into heteropolymer RNA template after 2 hrs
Parameters: species or system Hepacivirus hominis
experimentalConditions: Con1, 2 h

> print(dat)
                               samplesmiles  valueobserved
1  COc1ncccc1C(=O)Nc1ccc(C(C)C)cc1N1CCN(c2cnccn2)CC1        > 20 µM
2  CNCC(=O)N1CCN(c2cc(C(C)C)ccc2NC(=O)c2cccnc2)CC1       > 200 µM
3  CC(C)c1ccc(NC(=O)C2CCOCC2)c(N2CCN(c3cnccn3)CC2)c1        > 20 µM
4  Cc1n[nH]cc1C(=O)Nc1ccc(C(C)C)cc1N1CCN(c2cnccn2)CC1       > 200 µM

// switching to the query compound
query: IC50 for CC(C)c1ccc(NC(=O)c2ccnnc2)c(N2CCN(c3cnccn3)CC2)c1 ?
result: > 20 µM

====

runDescription: Inhibition of Hepatitis C virus genotype 1b Con1 NS5B Cdelta21 polymerase assessed as incorporation of [33P]-CTP into heteropolymer RNA template after 2 hrs
Parameters: species or system Hepacivirus hominis
experimentalConditions: Con1, 2 h
pIC50: −log10 of the molar value.
measure: pIC50

> print(dat)
                                   molecule  valueobserved
1  CC(C)c1ccc(NC(=O)c2cccnc2)c(N2CCN(c3ncccn3)CC2)c1           5.64

a: CC(C)c1ccc(NC(=O)C2CCOC2)c(N2CCN(c3cnccn3)CC2)c1 (centres undefined)
b: Cc1c(F)cc(F)cc1C(=O)Nc1ccc(C(C)C)cc1N1CCN(c2cnccn2)CC1
c: CC(C)c1ccc(NC(=O)c2cccnc2C2CC2)c(N2CCN(c3cnccn3)CC2)c1
d: CC(C)c1ccc(NC(=O)c2cnc3ccccc3c2)c(N2CCN(c3cnccn3)CC2)c1
query: Please give the order of these molecules when sorted by pIC50, largest value leading. Order the labels as requested and give them as your answer.
result: b, c, d, a

====

runDescription: Inhibition of Hepatitis C virus genotype 1b Con1 NS5B Cdelta21 polymerase assessed as incorporation of [33P]-CTP into heteropolymer RNA template after 2 hrs
Parameters: species or system Hepacivirus hominis
experimentalConditions: Con1, 2 h
measure: IC50

Example entries begin here.
> print(dat)
                               samplesmiles  measure  valueobserved
1  CC(C)c1ccc(NC(=O)c2cccnc2)c(N2CCN(C(=O)Nc3ccccc3)CC2)c1     IC50       > 100 µM
2  CC(C)c1ccc(NC(=O)c2ccccn2)c(N2CCN(c3cnccn3)CC2)c1     IC50        > 20 µM
3  C=C(C)c1ncccc1C(=O)Nc1ccc(C(C)C)cc1N1CCN(c2cnccn2)CC1     IC50       > 200 µM

// switching to the query compound
query: IC50 for CC(C)c1ccc(NC(=O)c2cnc3[nH]ccc3c2)c(N2CCN(c3cnccn3)CC2)c1 ?
result: > 20 µM
